Test summary: Mean Kel of diclofenac potassium following oral dosing of Cataflam 50 mf tablet in healthy human
Type: ADME, organism-based
Parameters: dietary status Fasting, dose 50 mg, dosed compound id 2.46815e+06, dosed compound name Diclofenac potassium, gender Mixed, regimen Single, route oral, study doses 50 mg
Condition context: both, plasma, 50 mg

{"Structure string": "O=C(O)Cc1ccccc1Nc1c(Cl)cccc1Cl", "Unit spec": "s⁻¹", "k el": 0.000164}

* * *

Test summary: clinical
Condition context: both, human, plasma, po, 35 mg

{"Structure string": "O=C(O)Cc1ccccc1Nc1c(Cl)cccc1Cl", "half-life, h": 2.24}

* * *

Test summary: Median tmax of diclofenac following single oral dosing of 35 mg Zorvolex capsule in healthy human
Assay type: ADME, organism-based
Parameters: dietary status Fed, dose 35 mg, dosed compound id 2.46815e+06, dosed compound name Diclofenac, gender Mixed, regimen Single, route oral
Condition context: both, plasma, read-out: Median Tmax
Experimental readout: Tmax (h)

{"Compound": "O=C(O)Cc1ccccc1Nc1c(Cl)cccc1Cl [DICLOFENAC]", "Measured": 3.32}

* * *

Test summary: Mean AUC (0-infinity) value of diclofenac following single oral dosing of 35 mg Zorvolex capsule in healthy human
Type: ADME, organism-based
Set-up: time infinity, dietary status Fed, dose 35 mg, dosed compound id 2.46815e+06, dosed compound name Diclofenac, gender Mixed, regimen Single, route oral
Condition context: both, plasma, read-out: AUC (0-infinity)

{"Structure string": "O=C(O)Cc1ccccc1Nc1c(Cl)cccc1Cl", "AUC(0-inf) [ng·h/mL]": 876}

* * *

Test summary: clinical
Condition context: both, human, plasma, po, 50 mg

{"Structure string": "O=C(O)Cc1ccccc1Nc1c(Cl)cccc1Cl", "Unit spec": "min", "half-life": 136}

* * *

Test summary: clinical
Condition context: both, human, plasma, po, 50 mg
Description: Mean terminal elimination half-life of diclofenac following single oral dosing of 50 mg diclofenac potassium softgel capsule in healthy human
Experimental readout: half-life

{"Compound": "O=C(O)Cc1ccccc1Nc1c(Cl)cccc1Cl [DICLOFENAC]", "Measured": "1.07 h"}

* * *

Test summary: Geometric mean for Cmax of diclofenac following single oral dosing of 18 mg Zorvolex capsule in healthy human
Format: ADME, organism-based
Parameters: dietary status Fasting, dose 18 mg, dosed compound id 2.46815e+06, dosed compound name Diclofenac, gender Mixed, regimen Single, route oral
Condition context: both, plasma
Experimental readout: Cmax (ng/mL)

{"Compound": "O=C(O)Cc1ccccc1Nc1c(Cl)cccc1Cl [DICLOFENAC]", "Experimental readout": "Cmax", "Unit spec": "ng/mL", "Measured": 454}

* * *

Test summary: Mean Cmax value of diclofenac following single oral dosing of 18 mg Zorvolex capsule in healthy human
Type: ADME, organism-based
Parameters: dietary status Fasting, dose 18 mg, dosed compound id 2.46815e+06, dosed compound name Diclofenac, gender Mixed, regimen Single, route oral
Condition context: both, plasma
Experimental readout: Cmax (ng/mL)

{"Molecule": "O=C(O)Cc1ccccc1Nc1c(Cl)cccc1Cl [DICLOFENAC]", "Experimental readout": "Cmax", "Measured": 496}

* * *

Test summary: clinical
Condition context: both, human, plasma, po, 50 mg

{"Compound": "O=C(O)Cc1ccccc1Nc1c(Cl)cccc1Cl [DICLOFENAC]", "Unit spec": "h", "half-life": 2.27}

* * *

Test summary: clinical
Condition context: both, human, plasma, po, 50 mg
Description: Mean terminal elimination half-life of diclofenac following single oral dosing of 50 mg diclofenac potassium softgel capsule in healthy human
Experimental readout: half-life (min)

{"Structure string": "O=C(O)Cc1ccccc1Nc1c(Cl)cccc1Cl", "Measured": 66}

* * *

Test summary: Mean AUC (0-infinity) of diclofenac following single oral dosing of 50 mg diclofenac potassium softgel capsule in healthy human
Format: ADME, organism-based
Parameters: time infinity, dietary status Fasting, dose 50 mg, dosed compound id 2.46815e+06, dosed compound name Diclofenac potassium, gender Mixed, regimen Single, route oral, study doses 25/50 mg
Condition context: both, plasma, read-out: AUC (0-infinity)

{"Molecule": "O=C(O)Cc1ccccc1Nc1c(Cl)cccc1Cl [DICLOFENAC]", "Unit spec": "ng·h/mL", "AUC(0-inf)": 1550}

* * *

Test summary: Mean Cmax value of diclofenac following single oral dosing of 50 mg Cataflam tablet in healthy human
Assay type: ADME, organism-based
Design: dietary status Fed, dose 50 mg, dosed compound id 2.46815e+06, dosed compound name Diclofenac potassium, gender Mixed, regimen Single, route oral
Condition context: both, plasma

{"Structure string": "O=C(O)Cc1ccccc1Nc1c(Cl)cccc1Cl", "Cmax [ng/mL]": 713}

* * *

Test summary: Geometric mean for AUC (0-infinity) of diclofenac following single oral dosing of 35 mg Zorvolex capsule in healthy human
Format: ADME, organism-based
Design: time infinity, dietary status Fasting, dose 35 mg, dosed compound id 2.46815e+06, dosed compound name Diclofenac, gender Mixed, regimen Single, route oral
Condition context: both, plasma, read-out: AUC (0-infinity)

{"Structure string": "O=C(O)Cc1ccccc1Nc1c(Cl)cccc1Cl", "AUC(0-inf) [ng·h/mL]": 979}

* * *

Test summary: Mean AUC(0-infinity) of diclofenac potassium following oral dosing of PRO-513 50 mg sachet in healthy human
Assay type: ADME, organism-based
Set-up: time infinity, dietary status Fasting, dose 50 mg, dosed compound id 2.46815e+06, dosed compound name Diclofenac potassium, gender Mixed, regimen Single, route oral, study doses 50 mg
Condition context: both, plasma, read-out: AUC(0-infinity)
Experimental readout: AUC(0-inf)

{"Structure string": "O=C(O)Cc1ccccc1Nc1c(Cl)cccc1Cl", "Experimental readout": "AUC(0-inf)", "Measured": "1250 ng·h/mL"}

* * *

Test summary: Mean Tmax of diclofenac following single oral dosing of 50 mg diclofenac potassium softgel capsule in healthy human
Type: ADME, organism-based
Parameters: dietary status Fasting, dose 50 mg, dosed compound id 2.46815e+06, dosed compound name Diclofenac potassium, gender Mixed, regimen Single, route oral, study doses 25/50 mg
Condition context: both, plasma

{"Structure string": "O=C(O)Cc1ccccc1Nc1c(Cl)cccc1Cl", "Tmax [min]": 30.6}

* * *

Test summary: Mean Tmax of diclofenac following single oral dosing of 50 mg Cataflam in healthy human
Format: ADME, organism-based
Set-up: dietary status Fasting, dose 50 mg, dosed compound id 2.46815e+06, dosed compound name Diclofenac potassium, gender Mixed, regimen Single, route oral, study doses 50 mg
Condition context: both, plasma
Experimental readout: Tmax (min)

{"Compound": "O=C(O)Cc1ccccc1Nc1c(Cl)cccc1Cl [DICLOFENAC]", "Measured": 55.8}
